Test system: TK-10
Experiment: NCI tumour cell line growth inhibition, 48 h
Activity calls are given as the source filed them. Rule as the data show it: active = GI50 up to about 1.1 µM and inactive = higher.
// classify into 1 for active, 0 for inactive

Illustrative cases are given below, each with its answer.
query: Hi, sorry to bother you, what did the test record for Nc1ccc2nc3n(c2c1)C(c1c(F)cccc1F)SC3 (stereo unspecified) ?
result: 0

query: Hi, sorry to bother you, what did the test record for COc1cc(/C=C2\N=C(c3ccccc3)N(c3ccc(S(=O)(=O)Nc4nccs4)cc3)C2=O)ccc1O ?
result: 0

query: Hi, sorry to bother you, what did the test record for Cc1c[n+]2c3ccccc3c3ccccc3c2s1.[O-][Cl+3]([O-])([O-])[O-] ?
result: 0

query: Hi, sorry to bother you, what did the test record for O=C1Oc2ccccc2C(=O)/C1=C1/C=C(c2ccccc2)SS1 ?
result: 0

query: Hi, sorry to bother you, what did the test record for COc1cc2c(c(O)c1OC)-c1c(cc(OC)c(OC)c1OC)CC(C)C(C)C2 (stereo unspecified) ?
result: 0

query: Hi, sorry to bother you, what did the test record for CCCCCCCCCCCc1noc2c1C(=O)C(O)CC2 (stereo unspecified) ?
result: 0

query: Hi, sorry to bother you, what did the test record for COc1cc(C(C)c2cc3c(cc2OCCCCOc2cc4c(cc2C(C)c2cc(OC)c(OC)c(OC)c2)OCO4)OCO3)cc(OC)c1OC (stereo unspecified) ?
result: 0

query: Hi, sorry to bother you, what did the test record for C=C(C)C(O)C(O)C[C@@H](C)C1CC[C@]23C[C@]12CCC1[C@@]2(C)CCC(OC(C)=O)C(C)(C)C2CC(OC2OC(CO)C(O)C(O)C2O)[C@]13C (stereo partly specified) ?
result: 0

More entries:
query: Hi, sorry to bother you, what did the test record for CCOC(=O)C(C)(C)C(O)C(C)C (stereo unspecified) ?
result: 0

* * *

System: Hs-578T
Test: NCI tumour cell line growth inhibition, 48 h
Calls of active or inactive are those of the source. Rule as the data show it: active = GI50 up to about 1.1 µM and inactive = higher.
// classify into active, inactive

query: Hi, sorry to bother you, what did the test record for COc1cc(/C=C2\N=C(c3ccccc3)N(c3ccc(S(=O)(=O)Nc4nccs4)cc3)C2=O)ccc1O ?
result: inactive

query: Hi, sorry to bother you, what did the test record for Cc1noc2nnn(-c3ccc(Cl)cc3)c(=O)c12 ?
result: inactive

query: Hi, sorry to bother you, what did the test record for Cc1ccc(S(=O)(=O)N2CCN(S(=O)(=O)c3ccc(C)cc3)CCN(S(=O)(=O)c3ccc(C)cc3)Cc3cc(C#N)c(C#N)cc3CN(S(=O)(=O)c3ccc(C)cc3)CC2)cc1 ?
result: inactive

query: Hi, sorry to bother you, what did the test record for Cc1cc(O)c(C(C)C)cc1C(=S)Nc1ccc(Cl)cc1 ?
result: inactive

query: Hi, sorry to bother you, what did the test record for O=C(O)c1cc2cc(OCc3ccccc3)ccc2[nH]1 ?
result: inactive

More entries:
query: Hi, sorry to bother you, what did the test record for COc1ccc(C2NC(N)=C(C#N)C3=C2C(C)CCC3)cc1OC (configuration not stated) ?
result: inactive

query: Hi, sorry to bother you, what did the test record for Clc1ccc(-c2nn3c(-c4ccncc4)nnc3s2)cc1 ?
result: inactive

query: Hi, sorry to bother you, what did the test record for CCOC(=O)c1cc(NC(=O)c2ccccc2)c(=O)n2c(cc3c(Cl)cccc32)c1O ?
result: inactive

query: Hi, sorry to bother you, what did the test record for O=c1[nH]nc(-c2ccccc2)n1/N=C/c1ccco1 ?
result: inactive

query: Hi, sorry to bother you, what did the test record for Cn1c(=O)c2c(ncn2CCSS(=O)(=O)O)n(C)c1=O ?
result: inactive

* * *

Tested on: ACHN
Assay: NCI tumour cell line growth inhibition, 48 h
The source made the active and inactive calls. Cut-off read from the data, not from the text of the source: active = GI50 up to about 1.1 µM and inactive = higher.
MEASURED PARAMETER: GI50

query: Requested read-out GI50, target or system ACHN, entry Fc1c(F)c(F)c2c(c1F)CSc1nc3ccccc3n1-2
result: > 100 µM (inactive)

query: Requested read-out GI50, target or system ACHN, entry CCCCCCCCSC1=C(Cl)C(=O)C(OC)=C(OC)C1=O
result: 10 µM (inactive)

Record GI50 for all entries; do not skip any.
1. COc1ccccc1C(=O)Nc1ccc(Cl)c(C(=O)OC(C)C)c1
2. O=c1c2cc(Br)ccc2nc(CNc2ccccc2)n1-c1ccccc1
3. CC(=O)O[C@H]1[C@@H](N2CCOCC2)C[C@H]2[C@@H]3CC=C4C[C@@H](N5CCCC5)CC[C@]4(C)[C@H]3CC[C@@]21C

result:
1: 16 µM (inactive); 2: 18.7 µM (inactive); 3: > 100 µM (inactive)

* * *

Test system: HL-60
Experiment: NCI tumour cell line growth inhibition, 48 h
Activity calls are given as the source filed them. Rule as the data show it: active = GI50 up to about 1.1 µM and inactive = higher.
// classify into active, inactive

query: Hi, sorry to bother you, what did the test record for O=C(/C=C/c1ccccc1O)c1cccs1 ?
result: inactive

More entries:
query: Hi, sorry to bother you, what did the test record for C=C1C(=O)O[C@H]2C3OC3(C)CC/C=C(/C(=O)OC)[C@@H](OC(C)=O)[C@H](OC(=O)C3(C)OC3C)[C@H]12 (stereo not given in full) ?
result: active

query: Hi, sorry to bother you, what did the test record for CO/C=C(/C(=O)OC)c1ccccc1[C@H]1C[C@@H]1c1ccc(OC)cc1 ?
result: inactive

query: Hi, sorry to bother you, what did the test record for C[N+](C)(C)CC1CCc2ccccc2C1=O (stereo not given) ?
result: inactive

query: Hi, sorry to bother you, what did the test record for CC1(O)C(C)(O)C(C)(O)C1(C)O (stereo not given) ?
result: inactive

query: Hi, sorry to bother you, what did the test record for NNC(=O)c1ccc(OCc2nc3ccccc3[nH]2)cc1 ?
result: inactive

query: Hi, sorry to bother you, what did the test record for COc1cc(CCNC2=CC(=O)c3ncccc3C2=O)ccc1O ?
result: inactive

query: Hi, sorry to bother you, what did the test record for COC(=O)C[C@H](COCc1ccccc1)NC(=O)C[C@H](COCc1ccccc1)NC(=O)OC(C)(C)C ?
result: inactive

query: Hi, sorry to bother you, what did the test record for C=CCNC(=O)NNC(O)(C(=O)OCC)C(F)(F)F (stereo not given) ?
result: inactive

query: Hi, sorry to bother you, what did the test record for CCCCCCCC/C=C\CCCCCCCC(=O)O ?
result: inactive

query: Hi, sorry to bother you, what did the test record for CCOC(=O)C1=C(C)N(NC(=O)c2ccccc2)C2(O)CCCC12C(=O)OCC (stereo not given) ?
result: inactive

query: Hi, sorry to bother you, what did the test record for COc1nn(Cc2ccccn2)c2ccc([N+](=O)[O-])cc12 ?
result: inactive

query: Hi, sorry to bother you, what did the test record for O=C(c1ccccc1)c1c(CC(O)c2cccnc2)n(C(=O)c2ccccc2)c2ccccc12 (stereo not given) ?
result: inactive

query: Hi, sorry to bother you, what did the test record for CCCCCCCCCCCc1noc2c1C(=O)C(O)CC2 (stereo not given) ?
result: inactive

query: Hi, sorry to bother you, what did the test record for O=C(/C=C/c1ccc(O)cc1)OC[C@@H](O)COC1OC(CO)C(O)C(O)C1O (stereo not given in full) ?
result: inactive

query: Hi, sorry to bother you, what did the test record for N#Cc1cccc(/C=N/C23CC4CC(CC(C4)C2)C3)c1 ?
result: inactive

query: Hi, sorry to bother you, what did the test record for COc1cc(/C=N/N=C(\N)NO)cc(OC)c1OC ?
result: inactive

query: Hi, sorry to bother you, what did the test record for COc1cccc(-c2cc(=O)c3cc(N4CCCCC4)ccc3[nH]2)c1 ?
result: active

query: Hi, sorry to bother you, what did the test record for CCOC(=O)c1c(-c2ccc(Br)cc2)ccn1C ?
result: inactive

query: Hi, sorry to bother you, what did the test record for COc1cc(C(C)c2cc3c(cc2OCCCCOc2cc4c(cc2C(C)c2cc(OC)c(OC)c(OC)c2)OCO4)OCO3)cc(OC)c1OC (stereo not given) ?
result: inactive

* * *

Tested on: KM-20L2
Experiment: NCI tumour cell line growth inhibition, 48 h
Calls of active or inactive are those of the source. No stated cut-off is given here; in the data, active = GI50 up to about 1.1 µM and inactive = higher. Square brackets hold non-standard residues; d marks the D form. Peptide text beside a SMILES is read from it. * marks the point of attachment. ξ: configuration not given here. NMeN = CN[C@@H](CC(N)=O)C(=O)O; NMeV = CN[C@H](C(=O)O)C(C)C; ξNMeV = CNC(C(=O)O)C(C)C; Boc = CC(C)(C)OC(=O)*; ξNMeA = CNC(C)C(=O)O
Please respond with reported GI50 for every item in the list.

query: Requested read-out GI50, target or system KM-20L2, entry O=C1c2ccccc2C(=O)N1CCn1nc(-c2ccccc2)cc(-c2ccccc2)c1=O
result: > 100 µM (inactive)

query: Requested read-out GI50, target or system KM-20L2, entry O=c1c2cccnc2ncn1CCN1CCCC1
result: > 100 µM (inactive)

Record GI50 for all entries; do not skip any.
1. COC12CC(O)=C(C(C)=O)C(=O)C1(C)c1c(OC(C)=O)c(C)c(O)c(C(C)=O)c1O2 (centres undefined)
2. CCOC(=O)C1=C(C)N(NC(=O)c2ccccc2)C2(O)CCCC12C(=O)OCC (centres undefined)
3. COC(=O)C(C)N(C)C(=O)[C@H](CC(N)=O)N(C)C(=O)[C@@H]1CCCN1C(=O)[C@H](C(C)C)N(C)C(=O)C(C(C)C)N(C)C(=O)[C@@H](NC(=O)OC(C)(C)C)C(C)C (some centres undefined) (Boc-V[ξNMeV][NMeV]P[NMeN][ξNMeA]-OMe)
4. Cn1cc(-c2ccc3c4ccccc4n(C)c3c2)c2ccccc21

result:
1: 16.7 µM (inactive); 2: > 100 µM (inactive); 3: > 100 µM (inactive); 4: > 100 µM (inactive)
